Tested on: Caupolican (Caup) homeodomain DNA-binding domain
Sequence: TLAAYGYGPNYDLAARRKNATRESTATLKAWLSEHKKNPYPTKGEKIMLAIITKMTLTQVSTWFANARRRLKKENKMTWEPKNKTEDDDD
assayComment: PBM E-score (8-mer, recovered from the published 9-mer minima) (E-score (dimensionless, -0.5 to 0.5)); higher = stronger relative binding preference, active = 0.31 or more
Only a selection was taken, and hits are over-represented in it overall. How many sequences the whole screen found active is unknown.
Answer with one of the outcomes active, inactive

Sample answers from the record:
TCTATCCA	inactive
GGGATTCA	inactive
GTGTTACA	active
CACAGTAA	inactive
CTTTAGTC	inactive

Prompt: What classification did CTGACACA end up with in this test?
Response: inactive

Prompt: Same read-out for ATTAACAA ?
Response: active

Prompt: Same read-out for ATTAACAG ?
Response: inactive

Prompt: Same read-out for CACATGTC ?
Response: active

Prompt: Same read-out for CATGTCAG ?
Response: active

====

System: Caupolican (Caup) homeodomain DNA-binding domain
Sequence: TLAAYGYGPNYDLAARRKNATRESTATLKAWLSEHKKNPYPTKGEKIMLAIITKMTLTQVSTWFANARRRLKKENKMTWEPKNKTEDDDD
assayComment: PBM E-score (8-mer, recovered from the published 9-mer minima) (E-score (dimensionless, -0.5 to 0.5)); higher = stronger relative binding preference, active = 0.31 or more
Only a selection was taken, and hits are over-represented in it overall. How many sequences the whole screen found active is unknown.
Answer with one of the outcomes active, inactive

AAACATCA	inactive
CACACGAA	inactive
AATGCATA	inactive
CAACATGA	active
CACACGTA	inactive
GCCATGGC	inactive
CACACGGA	inactive
ACTTGCAT	inactive
CACATGGC	inactive
TCACATGA	inactive

Prompt: What classification did TACACGTA end up with in this test?
Response: active

Prompt: Same read-out for GAACATGA ?
Response: active

Prompt: Same read-out for TCATCGCA ?
Response: inactive

Prompt: Same read-out for AAACATGA ?
Response: active

Prompt: Same read-out for TAACATGA ?
Response: active

Prompt: Same read-out for TAACATCA ?
Response: inactive

====

Tested on: Caupolican (Caup) homeodomain DNA-binding domain
Sequence: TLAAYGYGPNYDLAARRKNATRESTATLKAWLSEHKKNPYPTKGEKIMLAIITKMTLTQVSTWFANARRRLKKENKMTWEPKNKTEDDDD
assayComment: PBM E-score (8-mer, recovered from the published 9-mer minima) (E-score (dimensionless, -0.5 to 0.5)); higher = stronger relative binding preference, active = 0.31 or more
The full list was thinned out, with hits kept by preference. How many sequences the whole screen found active is unknown.
Answer with one of the outcomes label 1 = active, label 0 = inactive

Sample answers from the record:
CACAAACA	label 0
TGTATCAA	label 1
TAGCACAA	label 0
GATGTCTA	label 0
GAGTAACC	label 0
GAGCTCTA	label 0
CGAGCTCA	label 0
CAACGTGA	label 0

Prompt: What classification did CACGTAAG end up with in this test?
Response: label 0

Prompt: Same read-out for CGGCTATC ?
Response: label 0

Prompt: Same read-out for AACAAACC ?
Response: label 0

Prompt: Same read-out for GTGTCGTA ?
Response: label 0

Prompt: Same read-out for CAAGGCGA ?
Response: label 0

Prompt: Same read-out for CATGTCTA ?
Response: label 1

Prompt: Same read-out for ACCCATCG ?
Response: label 0

Prompt: Same read-out for AATAAATA ?
Response: label 0

Prompt: Same read-out for AACAAGCT ?
Response: label 1

Prompt: Same read-out for GACAAACA ?
Response: label 1

====

System: Caupolican (Caup) homeodomain DNA-binding domain
Sequence: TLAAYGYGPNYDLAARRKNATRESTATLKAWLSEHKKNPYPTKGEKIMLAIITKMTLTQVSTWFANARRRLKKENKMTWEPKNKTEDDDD
assayComment: PBM E-score (8-mer, recovered from the published 9-mer minima) (E-score (dimensionless, -0.5 to 0.5)); higher = stronger relative binding preference, active = 0.31 or more
The sample as a whole holds a higher share of hits than the screen did. The hit rate among all sequences tested is not known here.
Answer with one of the outcomes 1 (active), 0 (inactive)

Sample answers from the record:
GCAGTCTA	0
CTGTGCGA	0

Prompt: What classification did AGGCCCTG end up with in this test?
Response: 0

Prompt: Same read-out for AAAATGTA ?
Response: 0

====

Test system: Caupolican (Caup) homeodomain DNA-binding domain
Sequence: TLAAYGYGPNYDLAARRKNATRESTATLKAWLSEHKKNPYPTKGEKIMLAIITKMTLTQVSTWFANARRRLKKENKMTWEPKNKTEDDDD
assayComment: PBM E-score (8-mer, recovered from the published 9-mer minima) (E-score (dimensionless, -0.5 to 0.5)); higher = stronger relative binding preference, active = 0.31 or more
This is one part of a sample in which hits are shown more often than they occur. No count for the full screen is at hand.
Known PBM E-score of a selection of sequences
Simply state the number, no unit and no words.

ACATGAAG	0.293
AAATATGT	0.335
CCATGAAA	0.00449
AGCCCTTC	-0.22
GTAGAGGA	0.00507

Prompt: Given ACATGAAC , state its recorded PBM E-score.
Response: 0.372

Prompt: Same read-out for GCGCCACA ?
Response: -0.129

Prompt: Same read-out for CACATAAA ?
Response: 0.121

Prompt: Same read-out for GCATGAAC ?
Response: 0.104

Prompt: Same read-out for ACACCGTC ?
Response: 0.0118

Prompt: Same read-out for ACATAAGG ?
Response: 0.2

====

Test system: Caupolican (Caup) homeodomain DNA-binding domain
Sequence: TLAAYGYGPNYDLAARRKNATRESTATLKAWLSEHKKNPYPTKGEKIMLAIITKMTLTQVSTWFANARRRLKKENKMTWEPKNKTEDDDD
assayComment: PBM E-score (8-mer, recovered from the published 9-mer minima) (E-score (dimensionless, -0.5 to 0.5)); higher = stronger relative binding preference, active = 0.31 or more
This is one part of a sample in which hits are shown more often than they occur. No count for the full screen is at hand.
Answer with one of the outcomes active, inactive

Sample answers from the record:
TCTAACAA	inactive
GACAAATA	inactive
AGCAACAA	inactive

Prompt: What classification did TACAAGTA end up with in this test?
Response: active

Prompt: Same read-out for AACAACTG ?
Response: inactive

Prompt: Same read-out for GTGACCTA ?
Response: inactive

Prompt: Same read-out for AAGACTGC ?
Response: inactive

Prompt: Same read-out for CCGGACAG ?
Response: inactive

Prompt: Same read-out for TACAACAA ?
Response: active

Prompt: Same read-out for GACAAGTA ?
Response: active

Prompt: Same read-out for CAACAAAG ?
Response: inactive

Prompt: Same read-out for ATGAATCG ?
Response: inactive

====

Test system: Caupolican (Caup) homeodomain DNA-binding domain
Sequence: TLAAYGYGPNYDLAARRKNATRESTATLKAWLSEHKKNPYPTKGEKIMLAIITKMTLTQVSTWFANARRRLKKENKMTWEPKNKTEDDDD
assayComment: PBM E-score (8-mer, recovered from the published 9-mer minima) (E-score (dimensionless, -0.5 to 0.5)); higher = stronger relative binding preference, active = 0.31 or more
The sample as a whole holds a higher share of hits than the screen did. How many sequences the whole screen found active is unknown.
valueKind: PBM E-score

GAGTGTAA	0.11 (inactive)

Prompt: Given GGTACACA , state its recorded PBM E-score.
Response: 0.28 (inactive)

Prompt: Same read-out for TTTACAAA ?
Response: 0.245 (inactive)

Prompt: Same read-out for AGTACCAA ?
Response: 0.128 (inactive)

====

Known PBM E-score of a selection of sequences
Tested on: Caupolican (Caup) homeodomain DNA-binding domain
Sequence: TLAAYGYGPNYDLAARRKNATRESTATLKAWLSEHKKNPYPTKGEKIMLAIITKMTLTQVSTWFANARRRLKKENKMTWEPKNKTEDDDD
assayComment: PBM E-score (8-mer, recovered from the published 9-mer minima) (E-score (dimensionless, -0.5 to 0.5)); Drosophila protein; higher = stronger relative binding preference, active = 0.31 or more
This is one part of a sample in which hits are shown more often than they occur. How many sequences the whole screen found active is unknown.
Simply state the number, no unit and no words.

ATGTTCGG	0.244
AATTACAT	0.385
AATTACGT	0.122
GATTACCA	0.0721
AGTGACAA	0.255

Prompt: Given AATTACTA , state its recorded PBM E-score.
Response: 0.179

Prompt: Same read-out for AAAGGTTG ?
Response: -0.00255

Prompt: Same read-out for AATGTAAC ?
Response: 0.295

Entry source: the supplement of paper PMC3724861
